System: influenza A virus minigenome (PB2, PB1, PA, NP; luciferase reporter) in 293T cells, RNP_Hubei
Assay Remarks: microbe, parasite or virus in culture
Type: cell-based
Condition Notes: HEK-293T, 48 h
pEC50: −log10 of the molar value.
Assay Metric: pEC50

Examples with their reported pEC50 follow.
INSERT INTO results (molecule, observed_measurement) VALUES
  ('O=C1c2c(O)c(=O)cnn2[C@@H]([C@H](c2cccc(C(F)(F)F)c2)c2cccc(F)c2F)[C@H]2CCCN12 [Example 3]', '> 7.00'),
  ('Cc1c([C@@H](c2cccc(F)c2)[C@H]2[C@H]3CCCN3C(=O)c3c(O)c(=O)cnn32)ccc(F)c1F [Example 11]', '> 7.00'),
  ('COCCOC(=O)OCOc1c2n(ncc1=O)[C@@H]([C@H](c1ccccc1)c1cccc(F)c1F)[C@H]1CCCN1C2=O [Example 46]', '≤ 6.00'),
  ('COC(=O)Oc1c2n(ncc1=O)[C@@H]([C@H](c1ccccc1)c1cccc(F)c1F)[C@H]1CCCN1C2=O [Example 54]', '> 7.00'),
  ('O=C(Oc1c2n(ncc1=O)[C@@H]([C@H](c1ccccc1)c1cccc(F)c1F)[C@H]1CCCN1C2=O)c1ccccc1 [Example 69]', '> 7.00'),
  ('CC(=O)OCOc1c2n(ncc1=O)[C@@H]([C@H](c1cccc(F)c1)c1cccc(F)c1F)[C@H]1CCCN1C2=O [Example 114]', '> 7.00');

Please look at the following molecule next.
Prompt: Tell me the measured pEC50 of COC(C)(C)C(=O)Oc1c2n(ncc1=O)[C@@H]([C@H](c1ccccc1)c1cccc(F)c1F)[C@H]1CCCN1C2=O [Example 40] , please.
Completion: > 7.00
